The measured values listed here are drawn from paper PMC11195807.

# Target: hCA XII (Homo sapiens)
# Construct: made in house
# Assay Remarks: stopped-flow CO2 hydrase assay, hCA XII
# Type: biochemical
# Test Parameters: coumarins; inhibitor-enzyme incubation 6 h; mean ± SEM of three assays
Measured Endpoint: Ki (nM)

Enquiry: Please look up its Ki: COc1ccc2cc3[n+](cc2c1OCCCCCn1cc(COc2ccc4ccc(=O)oc4c2)nn1)CCc1cc2c(cc1-3)OCO2 [Compound 39]
Return: 20.1

Enquiry: Another compound: COc1ccc2cc3[n+](cc2c1OCCCCn1cc(COc2ccc4ccc(=O)oc4c2)nn1)CCc1cc2c(cc1-3)OCO2 [Compound 37]
Return: 8.4

Enquiry: Another compound: COc1ccc2cc3[n+](cc2c1OCCCn1cc(COc2ccc4ccc(=O)oc4c2)nn1)CCc1cc2c(cc1-3)OCO2 [Compound 34]
Return: 30.1

Enquiry: Another compound: COc1ccc2cc3[n+](cc2c1OCc1cn(CCCOc2ccc4ccc(=O)oc4c2)nn1)CCc1cc2c(cc1-3)OCO2 [Compound 42]
Return: 10.2

Enquiry: Another compound: COc1ccc2cc3[n+](cc2c1OCCCCn1cc(CCOc2ccc4ccc(=O)oc4c2)nn1)CCc1cc2c(cc1-3)OCO2 [Compound 38]
Return: 16.7

(a) COc1ccc2cc3[n+](cc2c1OCc1cn(CCCCCOc2ccc4ccc(=O)oc4c2)nn1)CCc1cc2c(cc1-3)OCO2 [Compound 44]
(b) COc1ccc2cc3[n+](cc2c1OCc1cn(CCCCOc2ccc4ccc(=O)oc4c2)nn1)CCc1cc2c(cc1-3)OCO2 [Compound 43]
(c) COc1ccc2cc3[n+](cc2c1OCCCn1cc(CCCOc2ccc4ccc(=O)oc4c2)nn1)CCc1cc2c(cc1-3)OCO2 [Compound 36]
Enquiry: // sort entries: Ki, high to low Response format: the labels, sorted as the prompt asks.
Return: c, a, b

(a) COc1ccc2cc3[n+](cc2c1OCc1cn(-c2ccc4c(C)cc(=O)oc4c2)nn1)CCc1cc2c(cc1-3)OCO2 [Compound 45]
(b) COc1ccc2cc3[n+](cc2c1OCCCn1cc(CCOc2ccc4ccc(=O)oc4c2)nn1)CCc1cc2c(cc1-3)OCO2 [Compound 35]
Enquiry: I would appreciate it if you could say which entry, a or b , has the lower Ki value. Selection: enter the item's label.
Return: a

---

# System: Tel23
# Assay Remarks: CD melting experiments, Tel23 GQ
# Format: binding, human
# Test Parameters: ΔT1/2 of compound minus ΔT1/2 of berberine, 2 molar equiv
Listed here: items and their measured ΔΔT1/2 Tel23.
Write the value in °C as a bare number.

Enquiry: Short answer please: ΔΔT1/2 Tel23, Tel23, entry COc1ccc2cc3[n+](cc2c1OCCCCCn1cc(COc2ccc4ccc(=O)oc4c2)nn1)CCc1cc2c(cc1-3)OCO2 [Compound 39]
Return: −1.0

Enquiry: Another compound: COc1ccc2cc3[n+](cc2c1OCCn1cc(-c2ccc(S(N)(=O)=O)cc2)nn1)CCc1cc2c(cc1-3)OCO2 [Compound 26]
Return: 0.5

Enquiry: Another compound: COc1ccc2cc3[n+](cc2c1OCCCCn1cc(COc2ccc(S(N)(=O)=O)cc2)nn1)CCc1cc2c(cc1-3)OCO2 [Compound 31]
Return: −1.5

Enquiry: Another compound: COc1ccc2cc3[n+](cc2c1OCCCCCn1cc(-c2ccc(S(N)(=O)=O)cc2)nn1)CCc1cc2c(cc1-3)OCO2 [Compound 32]
Return: 2.5

Enquiry: Another compound: COc1ccc2cc3[n+](cc2c1OCCCn1cc(-c2ccc(S(N)(=O)=O)cc2)nn1)CCc1cc2c(cc1-3)OCO2 [Compound 28]
Return: −3.5

Further cases:
Enquiry: Short answer please: ΔΔT1/2 Tel23, Tel23, entry COc1ccc2cc3[n+](cc2c1OCCCn1cc(CCCOc2ccc4ccc(=O)oc4c2)nn1)CCc1cc2c(cc1-3)OCO2 [Compound 36]
Return: 3.0

Enquiry: Another compound: COc1ccc2cc3[n+](cc2c1OCc1cn(-c2cccc(S(N)(=O)=O)c2)nn1)CCc1cc2c(cc1-3)OCO2 [Compound 40]
Return: −4.0

---

# Target: hCA IX (Homo sapiens, UniProt Q16790)
# Construct: made in house
# Assay Remarks: stopped-flow CO2 hydrase assay, hCA IX
# Type: biochemical
# Test Parameters: sulphonamides; inhibitor-enzyme incubation 15 min; mean ± SEM of three assays
Measured Endpoint: Ki (nM)

Completed entries (count: 3):
Enquiry: Please look up its Ki: `COc1ccc2cc3[n+](cc2c1OCCn1cc(COc2ccc(S(N)(=O)=O)cc2)nn1)CCc1cc2c(cc1-3)OCO2`
Return: 0.65

Enquiry: Another molecule: `COc1ccc2cc3[n+](cc2c1OCc1cn(-c2cccc(S(N)(=O)=O)c2)nn1)CCc1cc2c(cc1-3)OCO2`
Return: 3.9

Enquiry: Another molecule: `COc1ccc2cc3[n+](cc2c1OCCCCn1cc(COc2ccc(S(N)(=O)=O)cc2)nn1)CCc1cc2c(cc1-3)OCO2`
Return: 0.71

(a) COc1ccc2cc3[n+](cc2c1OCCCCCn1cc(-c2ccc(S(N)(=O)=O)cc2)nn1)CCc1cc2c(cc1-3)OCO2
(b) COc1ccc2cc3[n+](cc2c1OCCCn1cc(-c2ccc(S(N)(=O)=O)cc2)nn1)CCc1cc2c(cc1-3)OCO2
(c) COc1ccc2cc3[n+](cc2c1OCCCCn1cc(-c2ccc(S(N)(=O)=O)cc2)nn1)CCc1cc2c(cc1-3)OCO2
Enquiry: Could you please order the items by Ki, going from the lowest number to the highest? Response format: the labels, sorted as the prompt asks.
Return: a, c, b
(a: 0.24 nM, c: 0.49 nM, b: 0.73 nM)

---

Structures can show the parent of a compound that is named as a salt.
Measured Endpoint: melting point

Enquiry: Please look up its melting point: COc1ccc2cc3[n+](cc2c1OCCCn1cc(-c2ccc(S(N)(=O)=O)cc2)nn1)CCc1cc2c(cc1-3)OCO2 (as salt: phosphate)
Return: 205 to 208 °C

Further cases:
Enquiry: Please look up its melting point: COc1ccc2cc3[n+](cc2c1OCCn1cc(COc2ccc(S(N)(=O)=O)cc2)nn1)CCc1cc2c(cc1-3)OCO2 (as salt: phosphate)
Return: 183 to 185 °C

Enquiry: Another compound: COc1ccc2cc3[n+](cc2c1OCCCCCn1cc(COc2ccc(S(N)(=O)=O)cc2)nn1)CCc1cc2c(cc1-3)OCO2 (as salt: phosphate)
Return: 168 to 171 °C

Enquiry: Another compound: COc1ccc2cc3[n+](cc2c1OCCCn1cc(CCOc2ccc4ccc(=O)oc4c2)nn1)CCc1cc2c(cc1-3)OCO2 (as salt: phosphate)
Return: 130 to 131 °C

Enquiry: Another compound: COc1ccc2cc3[n+](cc2c1OCc1cn(CCCCCOc2ccc4ccc(=O)oc4c2)nn1)CCc1cc2c(cc1-3)OCO2 (as salt: phosphate)
Return: 171 to 173 °C

Enquiry: Another compound: COc1ccc2cc3[n+](cc2c1OCc1cn(CCCCOc2ccc4ccc(=O)oc4c2)nn1)CCc1cc2c(cc1-3)OCO2 (as salt: phosphate)
Return: 124 to 125 °C

Enquiry: Another compound: COc1ccc2cc3[n+](cc2c1OCCCCn1cc(COc2ccc(S(N)(=O)=O)cc2)nn1)CCc1cc2c(cc1-3)OCO2 (as salt: phosphate)
Return: 165 to 168 °C

Enquiry: Another compound: COc1ccc2cc3[n+](cc2c1OCCn1cc(-c2ccc(S(N)(=O)=O)cc2)nn1)CCc1cc2c(cc1-3)OCO2 (as salt: phosphate)
Return: 212 to 215 °C

Enquiry: Another compound: COc1ccc2cc3[n+](cc2c1OCCCCCn1cc(-c2ccc(S(N)(=O)=O)cc2)nn1)CCc1cc2c(cc1-3)OCO2 (as salt: phosphate)
Return: 200 to 202 °C

Enquiry: Another compound: COc1ccc2cc3[n+](cc2c1OCCCCn1cc(CCOc2ccc4ccc(=O)oc4c2)nn1)CCc1cc2c(cc1-3)OCO2 (as salt: phosphate)
Return: 185 to 186 °C

---

# Target: hCA XII (Homo sapiens, UniProt O43570)
# Construct: made in house
# Sequence (O43570 25-354): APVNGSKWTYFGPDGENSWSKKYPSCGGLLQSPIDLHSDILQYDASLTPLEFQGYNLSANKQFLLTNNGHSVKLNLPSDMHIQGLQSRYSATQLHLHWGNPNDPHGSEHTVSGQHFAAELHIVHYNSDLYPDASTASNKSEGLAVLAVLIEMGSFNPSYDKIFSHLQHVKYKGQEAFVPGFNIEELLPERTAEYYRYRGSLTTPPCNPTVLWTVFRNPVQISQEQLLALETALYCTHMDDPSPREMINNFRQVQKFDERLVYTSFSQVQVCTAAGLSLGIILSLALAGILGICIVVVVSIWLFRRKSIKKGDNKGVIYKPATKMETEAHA
# Assay Remarks: stopped-flow CO2 hydrase assay, hCA XII
# Format: biochemical
# Test Parameters: hCA XII over hCA I
Measured Endpoint: Selectivity index (SI) I/XII

Completed entries (count: 5):
Enquiry: Please look up its Selectivity index (SI) I/XII: COc1ccc2cc3[n+](cc2c1OCCCS(N)(=O)=O)CCc1cc2c(cc1-3)OCO2 [Compound 47]
Return: 2.1

Enquiry: Another compound: COc1ccc2cc3[n+](cc2c1OCc1cn(-c2ccc(S(N)(=O)=O)cc2)nn1)CCc1cc2c(cc1-3)OCO2 [Compound 41]
Return: 135.9

Enquiry: Another compound: COc1ccc2cc3[n+](cc2c1OCc1cn(-c2cccc(S(N)(=O)=O)c2)nn1)CCc1cc2c(cc1-3)OCO2 [Compound 40]
Return: 148.0

Enquiry: Another compound: COc1ccc2cc3[n+](cc2c1OCCn1cc(-c2ccc(S(N)(=O)=O)cc2)nn1)CCc1cc2c(cc1-3)OCO2 [Compound 26]
Return: 79.5

Enquiry: Another compound: COc1ccc2cc3[n+](cc2c1OCCn1cc(COc2ccc(S(N)(=O)=O)cc2)nn1)CCc1cc2c(cc1-3)OCO2 [Compound 27]
Return: 213.7

(P) COc1ccc2cc3[n+](cc2c1OCCCn1cc(COc2ccc(S(N)(=O)=O)cc2)nn1)CCc1cc2c(cc1-3)OCO2 [Compound 29]
(Q) COc1ccc2cc3[n+](cc2c1OCCCCn1cc(COc2ccc(S(N)(=O)=O)cc2)nn1)CCc1cc2c(cc1-3)OCO2 [Compound 31]
Enquiry: Sort P and Q by Selectivity index (SI) I/XII descending and give the first. Selection: enter the item's label.
Return: Q
(Q: 127.2, P: 25.8)
